Target: MazF_(E24A) (E. coli toxin MazF with glutamic acid 24 replaced with alanine, His6 tag removed) (E. coli, UniProt P0AE70 1-111, E24A)
Test: ITC
PROPERTY_LABEL: Kd (µM)

                                     binder  property_label  data_value
0  Ac-SHLFWAQFKEYF-NH2 (the substitution is still to be applied; source: synthetic peptide) [SamF D9K mutant peptide]              Kd         6.6
